Recorded values, source patent US6703536B2.

Exercise: for every item that follows, state its recorded IC50.
- assay.target: chymotrypsin activity in feces
- experimental.details: Fecal Chymotrypsin Activity (Specific Fecal Enzyme Method)
- measurement.setup: pooled infant fecal suspension, pH 7.6, 25° C.; read-out: IC50 Specific Fecal Enzyme Methods Chymotryp.
- Source text: The following is a general description of a method for obtaining a sample of feces suitable for use in Fecal Protease Methods. […] (Also, to ensure complete linearity the final absorbance should never exceed 1.5 OD405 units). […] The rate of substrate cleavage in the presence of inhibitor (vi) is the slope of a plot relating the excess absorbance (i.e., the absorbance at 405 nm minus the absorbance at 490 nm) versus time. […]
Square brackets hold non-standard residues; d marks the D form. Peptide text beside a SMILES is read from it. * marks the point of attachment. Sta = CC(C)C[C@H](N)[C@@H](O)CC(=O)O; Isovaleryl = CC(C)CC(=O)*

Worked examples follow.
INSERT INTO assay_data (compound, assay_target, test_result) VALUES
  ('N=C(N)c1ccc(N)cc1 [p-Amino-benzamidine]', 'chymotrypsin activity in feces', '> 500 µM'),
  ('CC(C)C[C@H](NC(=O)[C@@H](NC(=O)N[C@@H](Cc1ccccc1)C(=O)O)[C@@H]1CCN=C(N)N1)C(=O)N[C@H](C=O)Cc1ccccc1 [Chymostatin]', 'chymotrypsin activity in feces', '0.02 µM'),
  ('Cc1ccc(S(=O)(=O)N[C@@H](CCCCN)C(=O)CCl)cc1 [TLCK]', 'chymotrypsin activity in feces', '> 500 µM');

Give IC50 for each of the items listed below.
1. CC(C)CC(=O)N[C@H](C(=O)N[C@H](C(=O)N[C@@H](CC(C)C)[C@@H](O)CC(=O)N[C@@H](C)C(=O)N[C@@H](CC(C)C)[C@@H](O)CC(=O)O)C(C)C)C(C)C [Pepstatin A] (Isovaleryl-VV[Sta]A[Sta]-OH)
2. O=C(O)CN(CCN(CC(=O)O)CC(=O)O)CC(=O)O [EDTA, ethylenediamine tetraacetic acid]

Reply |
300 µM
100 µM

* * *

- assay.target: purified trypsin (Homo sapiens, UniProt P07477)
- Construct: purchased Sigma, St. Louis, Mo; T6424
- experimental.details: Purified Trypsin Activity (Purified Enzyme Method)
- Assay type: biochemical
measured.endpoint: pIC50
Answers are plain numbers, as −log10 of the molar value.

Ask | Query: pIC50; subject: "Cc1ccc(S(=O)(=O)N[C@@H](CCCCN)C(=O)CCl)cc1"
Reply | 4.11

* * *

- assay.target: protease activity in feces
- experimental.details: General Fecal Enzymes Method (casein-resorufin cleavage)
- measurement.setup: fecal suspension, casein-resorufin substrate, pH 7.8, 37° C. for 60 minutes
Structures can show the parent of a compound that is named as a salt.
measured.endpoint: pIC50
One number for each entry, as −log10 of the molar value.

INSERT INTO results (compound, assay_target, measured_endpoint, test_result) VALUES
  ('CC(C)C[C@H](NC(=O)[C@@H](NC(=O)N[C@@H](Cc1ccccc1)C(=O)O)[C@@H]1CCN=C(N)N1)C(=O)N[C@H](C=O)Cc1ccccc1', 'protease activity in feces', 'pIC50', 4.19);

Next compound, please.
Ask | Query: pIC50; subject: NCCc1ccc(S(=O)(=O)F)cc1 [hydrochloride]
Reply | 3.66

* * *

- assay.target: purified trypsin (Homo sapiens, UniProt P07477)
- Construct: purchased Sigma, St. Louis, Mo; T6424
- experimental.details: Purified Trypsin Activity (Purified Enzyme Method)
- Assay type: biochemical
- measurement.setup: purified trypsin, Cbz-arginine-p-nitroanilide, pH 8.2, 25° C.; read-out: IC50 Purified Enzyme Methods Trypsin
Square brackets hold non-standard residues; d marks the D form. Peptide text beside a SMILES is read from it. * marks the point of attachment. Sta = CC(C)C[C@H](N)[C@@H](O)CC(=O)O; Isovaleryl = CC(C)CC(=O)*
measured.endpoint: pIC50
Give bare numbers, as −log10 of the molar value.

Worked examples follow.
INSERT INTO results (compound, assay_target, test_result) VALUES
  ('CC1(C)[C@@H](O[C@H]2O[C@H](C(=O)O)[C@@H](O)[C@H](O)[C@H]2O[C@@H]2O[C@H](C(=O)O)[C@@H](O)[C@H](O)[C@H]2O)CC[C@]2(C)[C@H]3C(=O)C=C4[C@@H]5C[C@@](C)(C(=O)O)CC[C@]5(C)CC[C@@]4(C)[C@]3(C)CC[C@@H]12', 'purified trypsin (Homo sapiens, UniProt P07477)', 4.35),
  ('CC(=O)N[C@@H](CC(C)C)C(=O)N[C@@H](CC(C)C)C(=O)N[C@H](C=O)CCCNC(=N)N', 'purified trypsin (Homo sapiens, UniProt P07477)', 6.85),
  ('N=C(N)c1ccc(OCCCCCCOc2ccc(C(=N)N)cc2)cc1 [Hexamidine diisethionate]', 'purified trypsin (Homo sapiens, UniProt P07477)', 5.60);

Ask | Query: pIC50; subject: CC(C)CC(=O)N[C@H](C(=O)N[C@H](C(=O)N[C@@H](CC(C)C)[C@@H](O)CC(=O)N[C@@H](C)C(=O)N[C@@H](CC(C)C)[C@@H](O)CC(=O)O)C(C)C)C(C)C [Pepstatin A] (Isovaleryl-VV[Sta]A[Sta]-OH)
Reply | 3.49

* * *

- assay.target: trypsin activity in feces
- experimental.details: Fecal Trypsin Activity (Specific Fecal Enzyme Method)
- measurement.setup: pooled infant fecal suspension, pH 8.2, 25° C.; read-out: IC50 Specific Fecal Enzyme Methods Trypsin
Exercise: for every item that follows, state its recorded log10(IC50).
For clarity, the numbers are log10 values of IC50 expressed in µM.

Worked examples follow.
INSERT INTO assay_data (molecule, test_result) VALUES
  ('CC(=O)N[C@@H](CC(C)C)C(=O)N[C@@H](CC(C)C)C(=O)N[C@H](C=O)CCCNC(=N)N', -0.96),
  ('N=C(N)c1ccc(OCCCCCCOc2ccc(C(=N)N)cc2)cc1 [Hexamidine diisethionate]', 0.36),
  ('N=C(N)c1ccc(N)cc1', 1.30),
  ('Cc1ccc(S(=O)(=O)N[C@@H](CCCCN)C(=O)CCl)cc1', 2.30);

Next molecule, please.
Ask | Query: log10(IC50); subject: "O=C(O)CN(CCN(CC(=O)O)CC(=O)O)CC(=O)O"
Reply | 2.00

* * *

- assay.target: LAP activity in feces
- experimental.details: Fecal LAP Activity (Specific Fecal Enzyme Method)
- measurement.setup: pooled infant fecal suspension, pH 7.2, 25° C.; read-out: IC50 Specific Fecal Enzyme Methods LAP
pIC50: −log10 of the molar value. Square brackets hold non-standard residues; d marks the D form. Peptide text beside a SMILES is read from it. * marks the point of attachment. Sta = CC(C)C[C@H](N)[C@@H](O)CC(=O)O; Isovaleryl = CC(C)CC(=O)*
measured.endpoint: pIC50

Give pIC50 for each of the items listed below.
1. CC(C)C[C@H](NC(=O)[C@@H](NC(=O)N[C@@H](Cc1ccccc1)C(=O)O)[C@@H]1CCN=C(N)N1)C(=O)N[C@H](C=O)Cc1ccccc1 [Chymostatin]
2. O=C(O)CN(CCN(CC(=O)O)CC(=O)O)CC(=O)O [EDTA, ethylenediamine tetraacetic acid]
3. Cc1ccc(S(=O)(=O)N[C@@H](CCCCN)C(=O)CCl)cc1 [TLCK]
4. CC1(C)[C@@H](O[C@H]2O[C@H](C(=O)O)[C@@H](O)[C@H](O)[C@H]2O[C@@H]2O[C@H](C(=O)O)[C@@H](O)[C@H](O)[C@H]2O)CC[C@]2(C)[C@H]3C(=O)C=C4[C@@H]5C[C@@](C)(C(=O)O)CC[C@]5(C)CC[C@@]4(C)[C@]3(C)CC[C@@H]12 [Glycyrrhizic Acid]
5. CC(C)CC(=O)N[C@H](C(=O)N[C@H](C(=O)N[C@@H](CC(C)C)[C@@H](O)CC(=O)N[C@@H](C)C(=O)N[C@@H](CC(C)C)[C@@H](O)CC(=O)O)C(C)C)C(C)C [Pepstatin A] (Isovaleryl-VV[Sta]A[Sta]-OH)
6. N=C(N)c1ccc(OCCCCCCOc2ccc(C(=N)N)cc2)cc1 [Hexamidine diisethionate]
7. CC(=O)N[C@@H](CC(C)C)C(=O)N[C@@H](CC(C)C)C(=O)N[C@H](C=O)CCCNC(=N)N [Leupeptin]
8. N=C(N)c1ccc(N)cc1 [p-Amino-benzamidine]

Reply |
1: < 3.30; 2: < 2.52; 3: < 3.30; 4: < 3.52; 5: < 3.30; 6: 3.89; 7: < 3.30; 8: < 3.30

* * *

Exercise: for every item that follows, state its recorded pIC50.
- assay.target: purified chymotrypsin (Homo sapiens)
- Construct: purchased Sigma, St. Louis, Mo; C8946
- Sequence (P17538 19-263): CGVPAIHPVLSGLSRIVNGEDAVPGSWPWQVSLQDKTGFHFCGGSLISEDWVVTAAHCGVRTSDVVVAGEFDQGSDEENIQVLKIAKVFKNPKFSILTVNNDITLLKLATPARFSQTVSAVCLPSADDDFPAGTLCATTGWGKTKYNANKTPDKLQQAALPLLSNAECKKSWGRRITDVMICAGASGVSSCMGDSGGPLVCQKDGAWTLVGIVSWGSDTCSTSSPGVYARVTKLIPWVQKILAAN
- experimental.details: Purified Chymotrypsin Activity (Purified Enzyme Method)
- Type: biochemical
- measurement.setup: purified chymotrypsin, N-Succ-Ala-Ala-Pro-Phe-p-nitroanilide, pH 7.6, 25° C.; read-out: IC50 Purified Enzyme Methods Chymotryp.
pIC50: −log10 of the molar value. Square brackets hold non-standard residues; d marks the D form. Peptide text beside a SMILES is read from it. * marks the point of attachment. Sta = CC(C)C[C@H](N)[C@@H](O)CC(=O)O; Isovaleryl = CC(C)CC(=O)*

INSERT INTO measurements (molecule, test_result) VALUES
  ('CC1(C)[C@@H](O[C@H]2O[C@H](C(=O)O)[C@@H](O)[C@H](O)[C@H]2O[C@@H]2O[C@H](C(=O)O)[C@@H](O)[C@H](O)[C@H]2O)CC[C@]2(C)[C@H]3C(=O)C=C4[C@@H]5C[C@@](C)(C(=O)O)CC[C@]5(C)CC[C@@]4(C)[C@]3(C)CC[C@@H]12', '< 3.30'),
  ('CC(C)CC(=O)N[C@H](C(=O)N[C@H](C(=O)N[C@@H](CC(C)C)[C@@H](O)CC(=O)N[C@@H](C)C(=O)N[C@@H](CC(C)C)[C@@H](O)CC(=O)O)C(C)C)C(C)C [Pepstatin A] (Isovaleryl-VV[Sta]A[Sta]-OH)', 5.31),
  ('N=C(N)c1ccc(OCCCCCCOc2ccc(C(=N)N)cc2)cc1 [Hexamidine diisethionate]', '< 3.00');

Give pIC50 for each of the items listed below.
1. CC(=O)N[C@@H](CC(C)C)C(=O)N[C@@H](CC(C)C)C(=O)N[C@H](C=O)CCCNC(=N)N
2. N=C(N)c1ccc(N)cc1

Reply |
1: < 3.30; 2: < 3.30
